Origin of measurements: patent US6916905B2

Molecular target: μ-opioid receptors (Rattus norvegicus, UniProt P33535)
Construct: assayed with a rat brain synaptosomal preparation (P2); from tissue; host or cells: rat brain P2 synaptosomes
Sequence (P33535 whole entry): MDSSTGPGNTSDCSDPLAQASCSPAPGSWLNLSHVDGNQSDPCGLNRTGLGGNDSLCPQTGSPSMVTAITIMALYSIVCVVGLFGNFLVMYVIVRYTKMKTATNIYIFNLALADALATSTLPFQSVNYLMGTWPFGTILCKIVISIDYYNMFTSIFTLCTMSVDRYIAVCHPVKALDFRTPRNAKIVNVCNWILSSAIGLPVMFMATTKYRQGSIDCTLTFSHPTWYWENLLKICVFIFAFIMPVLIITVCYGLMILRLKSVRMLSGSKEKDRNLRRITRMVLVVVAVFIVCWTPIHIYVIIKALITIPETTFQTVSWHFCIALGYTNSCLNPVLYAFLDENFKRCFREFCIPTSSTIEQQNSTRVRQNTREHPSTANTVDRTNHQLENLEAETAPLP
Test: Rat brain synaptosome (P2) binding, [3H]DAGO (Example 47)
Settings: rat brain synaptosomes (P2); mean ± SEM, n in parentheses; read-out: Kiμ (nM) [^3H]DAGO
Non-standard residues stand in square brackets, D forms with d. Residues, ends and D or L forms follow the SMILES beside them. *: point of attachment. Dmt = Cc1cc(O)cc(C)c1C[C@H](N)C(=O)O; Tic = O=C(O)[C@@H]1Cc2ccccc2CN1; NHNH2 = NN*
Recorded Ki, one value per entry.
Give the value, in units of nM, as a plain number.

For this compound ( Cc1cc(O)cc(C)c1C[C@@H](C(=O)N1Cc2ccccc2C[C@H]1C(=O)O)N1CCCC1 [Compound 4, [des-NH2-α-pyrrolidine-1-yl]-Dmt-Tic-OH] ), measured Ki is 814

For this compound ( Cc1cc(O)cc(C)c1C[C@H](N)C(=O)N1Cc2ccccc2C[C@H]1C(=O)NN [Compound 6, H-Dmt-Tic-NHNH2] (H-[Dmt]-[Tic]-NHNH2) ), measured Ki is 85.1

For this compound ( CNC(=O)[C@H](C)NC(=O)[C@@H]1Cc2ccccc2CN1C(=O)[C@@H](N)Cc1c(C)cc(O)cc1C [Compound 18, H-Dmt-Tic-Ala-NHMe] (H-[Dmt]-[Tic]-Ala-NHMe) ), measured Ki is 5.75
